Assay: Phase I first-in-human study, pharmacokinetics after single ascending subcutaneous doses in healthy volunteers
Assay type: in vivo
Conditions: human, plasma; single SC dose 4 mg; nominal time 0.75 h; mean; read-out: Plasma Concentration AXN-001
Bridge positions count the residues as written; N and C are the ends. Square brackets hold non-standard residues; d marks the D form. Peptide text beside a SMILES is read from it. * marks the point of attachment. Phe(2-CONH2) = NC(=O)c1ccccc1C[C@H](N)C(=O)O; Orn(iPr) = CC(C)NCCC[C@H](N)C(=O)O; Oxazole2carbonyl = O=C(c1ncco1)*; 3Pal = N[C@@H](Cc1cccnc1)C(=O)O
READOUT: level at 0.75 h (ng/mL)

{"COMPOUND": "CC(C)NCCC[C@@H]1NC(=O)[C@@H](NC(=O)[C@H](Cc2ccccc2C(N)=O)NC(=O)[C@H](NC(=O)c2ncco2)C(C)C)CSSC[C@@H](C(=O)N[C@@H](Cc2cccnc2)C(N)=O)NC(=O)[C@H](Cc2ccccc2)NC(=O)[C@@H]2CCCN2C(=O)CNC(=O)[C@H](C(C)C)NC(=O)[C@H](CC(=O)O)NC1=O [AXN-001] (Oxazole2carbonyl-[dV][Phe(2-CONH2)]C[Orn(iPr)]DVGPFC[3Pal]-NH2; disulfide 3-10)", "READOUT": "level at 0.75 h", "EXPERIMENTAL VALUE": 123}

* * *

Assay: Phase I first-in-human study, pharmacokinetics after single ascending subcutaneous doses in healthy volunteers
Type: in vivo
Settings: human, plasma; single SC dose 4 mg; nominal time 1 h; mean; read-out: Plasma Concentration AXN-001
Bridge positions count the residues as written; N and C are the ends. Square brackets hold non-standard residues; d marks the D form. Peptide text beside a SMILES is read from it. * marks the point of attachment. Phe(2-CONH2) = NC(=O)c1ccccc1C[C@H](N)C(=O)O; Orn(iPr) = CC(C)NCCC[C@H](N)C(=O)O; Oxazole2carbonyl = O=C(c1ncco1)*; 3Pal = N[C@@H](Cc1cccnc1)C(=O)O
READOUT: level at 1 h (ng/mL)

{"COMPOUND": "CC(C)NCCC[C@@H]1NC(=O)[C@@H](NC(=O)[C@H](Cc2ccccc2C(N)=O)NC(=O)[C@H](NC(=O)c2ncco2)C(C)C)CSSC[C@@H](C(=O)N[C@@H](Cc2cccnc2)C(N)=O)NC(=O)[C@H](Cc2ccccc2)NC(=O)[C@@H]2CCCN2C(=O)CNC(=O)[C@H](C(C)C)NC(=O)[C@H](CC(=O)O)NC1=O [AXN-001] (Oxazole2carbonyl-[dV][Phe(2-CONH2)]C[Orn(iPr)]DVGPFC[3Pal]-NH2; disulfide 3-10)", "READOUT": "level at 1 h", "EXPERIMENTAL VALUE": 134}

* * *

Experiment: Phase I first-in-human study, pharmacokinetics after single ascending subcutaneous doses in healthy volunteers
Assay type: in vivo
Conditions: human, plasma; single SC dose 1 mg; mean
Bridge positions count the residues as written; N and C are the ends. Square brackets hold non-standard residues; d marks the D form. Peptide text beside a SMILES is read from it. * marks the point of attachment. Phe(2-CONH2) = NC(=O)c1ccccc1C[C@H](N)C(=O)O; Orn(iPr) = CC(C)NCCC[C@H](N)C(=O)O; Oxazole2carbonyl = O=C(c1ncco1)*; 3Pal = N[C@@H](Cc1cccnc1)C(=O)O
READOUT: Tmax

{"MOLECULE": "CC(C)NCCC[C@@H]1NC(=O)[C@@H](NC(=O)[C@H](Cc2ccccc2C(N)=O)NC(=O)[C@H](NC(=O)c2ncco2)C(C)C)CSSC[C@@H](C(=O)N[C@@H](Cc2cccnc2)C(N)=O)NC(=O)[C@H](Cc2ccccc2)NC(=O)[C@@H]2CCCN2C(=O)CNC(=O)[C@H](C(C)C)NC(=O)[C@H](CC(=O)O)NC1=O [AXN-001] (Oxazole2carbonyl-[dV][Phe(2-CONH2)]C[Orn(iPr)]DVGPFC[3Pal]-NH2; disulfide 3-10)", "EXPERIMENTAL VALUE": "47.5 min"}

* * *

Test: Phase I first-in-human study, pharmacokinetics after single ascending subcutaneous doses in healthy volunteers
Assay type: in vivo
Settings: human, plasma; single SC dose 16 mg; nominal time 0.17 h; mean; read-out: Plasma Concentration AXN-001
Bridge positions count the residues as written; N and C are the ends. Square brackets hold non-standard residues; d marks the D form. Peptide text beside a SMILES is read from it. * marks the point of attachment. Phe(2-CONH2) = NC(=O)c1ccccc1C[C@H](N)C(=O)O; Orn(iPr) = CC(C)NCCC[C@H](N)C(=O)O; Oxazole2carbonyl = O=C(c1ncco1)*; 3Pal = N[C@@H](Cc1cccnc1)C(=O)O

{"COMPOUND": "CC(C)NCCC[C@@H]1NC(=O)[C@@H](NC(=O)[C@H](Cc2ccccc2C(N)=O)NC(=O)[C@H](NC(=O)c2ncco2)C(C)C)CSSC[C@@H](C(=O)N[C@@H](Cc2cccnc2)C(N)=O)NC(=O)[C@H](Cc2ccccc2)NC(=O)[C@@H]2CCCN2C(=O)CNC(=O)[C@H](C(C)C)NC(=O)[C@H](CC(=O)O)NC1=O [AXN-001] (Oxazole2carbonyl-[dV][Phe(2-CONH2)]C[Orn(iPr)]DVGPFC[3Pal]-NH2; disulfide 3-10)", "level at 0.17 h": "83.4 ng/mL"}

* * *

Test: Phase I first-in-human study, pharmacokinetics after single ascending subcutaneous doses in healthy volunteers
Format: in vivo
Conditions: human, plasma; single SC dose 8 mg; mean
Bridge positions count the residues as written; N and C are the ends. Square brackets hold non-standard residues; d marks the D form. Peptide text beside a SMILES is read from it. * marks the point of attachment. Phe(2-CONH2) = NC(=O)c1ccccc1C[C@H](N)C(=O)O; Orn(iPr) = CC(C)NCCC[C@H](N)C(=O)O; Oxazole2carbonyl = O=C(c1ncco1)*; 3Pal = N[C@@H](Cc1cccnc1)C(=O)O

{"COMPOUND": "CC(C)NCCC[C@@H]1NC(=O)[C@@H](NC(=O)[C@H](Cc2ccccc2C(N)=O)NC(=O)[C@H](NC(=O)c2ncco2)C(C)C)CSSC[C@@H](C(=O)N[C@@H](Cc2cccnc2)C(N)=O)NC(=O)[C@H](Cc2ccccc2)NC(=O)[C@@H]2CCCN2C(=O)CNC(=O)[C@H](C(C)C)NC(=O)[C@H](CC(=O)O)NC1=O [AXN-001] (Oxazole2carbonyl-[dV][Phe(2-CONH2)]C[Orn(iPr)]DVGPFC[3Pal]-NH2; disulfide 3-10)", "UNITS": "ng·h/mL", "AUC(0-inf)": 594}

* * *

Assay: Phase I first-in-human study, pharmacokinetics after single ascending subcutaneous doses in healthy volunteers
Format: in vivo
Conditions: human, plasma; single SC dose 16 mg; mean
Bridge positions count the residues as written; N and C are the ends. Square brackets hold non-standard residues; d marks the D form. Peptide text beside a SMILES is read from it. * marks the point of attachment. Phe(2-CONH2) = NC(=O)c1ccccc1C[C@H](N)C(=O)O; Orn(iPr) = CC(C)NCCC[C@H](N)C(=O)O; Oxazole2carbonyl = O=C(c1ncco1)*; 3Pal = N[C@@H](Cc1cccnc1)C(=O)O
READOUT: Tmax (min)

{"MOLECULE": "CC(C)NCCC[C@@H]1NC(=O)[C@@H](NC(=O)[C@H](Cc2ccccc2C(N)=O)NC(=O)[C@H](NC(=O)c2ncco2)C(C)C)CSSC[C@@H](C(=O)N[C@@H](Cc2cccnc2)C(N)=O)NC(=O)[C@H](Cc2ccccc2)NC(=O)[C@@H]2CCCN2C(=O)CNC(=O)[C@H](C(C)C)NC(=O)[C@H](CC(=O)O)NC1=O [AXN-001] (Oxazole2carbonyl-[dV][Phe(2-CONH2)]C[Orn(iPr)]DVGPFC[3Pal]-NH2; disulfide 3-10)", "EXPERIMENTAL VALUE": 57.5}

* * *

Test: Phase I first-in-human study, pharmacokinetics after single ascending subcutaneous doses in healthy volunteers
Type: in vivo
Settings: human, plasma; single SC dose 16 mg; nominal time 12 h; mean; read-out: Plasma Concentration AXN-001
Bridge positions count the residues as written; N and C are the ends. Square brackets hold non-standard residues; d marks the D form. Peptide text beside a SMILES is read from it. * marks the point of attachment. Phe(2-CONH2) = NC(=O)c1ccccc1C[C@H](N)C(=O)O; Orn(iPr) = CC(C)NCCC[C@H](N)C(=O)O; Oxazole2carbonyl = O=C(c1ncco1)*; 3Pal = N[C@@H](Cc1cccnc1)C(=O)O
READOUT: level at 12 h (ng/mL)

{"COMPOUND": "CC(C)NCCC[C@@H]1NC(=O)[C@@H](NC(=O)[C@H](Cc2ccccc2C(N)=O)NC(=O)[C@H](NC(=O)c2ncco2)C(C)C)CSSC[C@@H](C(=O)N[C@@H](Cc2cccnc2)C(N)=O)NC(=O)[C@H](Cc2ccccc2)NC(=O)[C@@H]2CCCN2C(=O)CNC(=O)[C@H](C(C)C)NC(=O)[C@H](CC(=O)O)NC1=O [AXN-001] (Oxazole2carbonyl-[dV][Phe(2-CONH2)]C[Orn(iPr)]DVGPFC[3Pal]-NH2; disulfide 3-10)", "EXPERIMENTAL VALUE": 9.2}
